Assay: Plasma concentration in C57BL/6 mouse at 3 mg/kg, po after 2.5 hrs
Type: ADME, organism-based
Parameters: dose 3 mg/kg, route oral
Measurement Kind: concentration at 2.5 h (nM)
Report as a plain number; the unit nM is understood.

Which concentration at 2.5 h reading was recorded for the molecule Cn1cc(C2(c3cc(C(=O)O)ccn3)N[C@@H](c3nc(-c4ccc(F)cc4)c[nH]3)Cc3c2[nH]c2ccccc32)cn1 (single isomer, unassigned; 3A) ? 2

###

Target: Somatostatin receptor type 2 (Homo sapiens)
Sequence (P30874 whole entry): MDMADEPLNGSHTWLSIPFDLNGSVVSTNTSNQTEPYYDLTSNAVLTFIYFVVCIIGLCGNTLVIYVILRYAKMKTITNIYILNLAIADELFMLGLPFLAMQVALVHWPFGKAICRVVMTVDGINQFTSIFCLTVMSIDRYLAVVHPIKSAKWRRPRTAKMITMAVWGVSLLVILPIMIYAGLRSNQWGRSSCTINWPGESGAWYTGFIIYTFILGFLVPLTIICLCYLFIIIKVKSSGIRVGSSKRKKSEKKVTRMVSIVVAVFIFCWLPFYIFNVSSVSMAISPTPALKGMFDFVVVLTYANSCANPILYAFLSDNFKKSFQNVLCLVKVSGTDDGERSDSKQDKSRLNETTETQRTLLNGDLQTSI
pIC50: −log10 of the molar value.
Measurement Kind: pIC50

Which pIC50 reading was recorded for the compound Cn1cc(C2(c3cc(C(=O)O)ccn3)N[C@@H](c3nc(-c4ccc(F)cc4)c[nH]3)Cc3c2[nH]c2ccccc32)cn1 (single isomer, unassigned; 3A) ? < 5.00
